# System: HCC 2998
# protocol_text: NCI tumour cell line growth inhibition, 48 h
Calls of active or inactive are those of the source. Rule as the data show it: active = GI50 up to about 1.1 µM and inactive = higher. Residues, ends and D or L forms follow the SMILES beside them. *: point of attachment. Bn = c1ccc(C*)cc1
Outcome codes: active, inactive

[[record]]
compound = "CCCCCCCCCCCCCCCCCC(=O)Nc1ccn(C2CCC(COP(=O)(O)O)O2)c(=O)n1 (stereo not given)"
system_under_test = "HCC 2998"
class_name = "inactive"

[[record]]
compound = "COC(=O)C(CC(C)C)NC(=O)C(N)Cc1ccc(OCc2ccccc2)cc1 (stereo not given) (H-Tyr(Bn)-Leu-OMe; configuration not given here)"
system_under_test = "HCC 2998"
class_name = "inactive"

[[record]]
compound = "COC(=O)[C@H]1ON2O[C@@H](O[C@H]3CCCC[C@@H]3C(C)(C)c3ccccc3)C[C@@H]3CC[C@H]1[C@@]32C"
system_under_test = "HCC 2998"
class_name = "inactive"

[[record]]
compound = "C=C(C)[C@@H](C(=O)OC)N1C(=O)c2ccccc2C1=O"
system_under_test = "HCC 2998"
class_name = "inactive"

[[record]]
compound = "COc1cc2cc[n+](C)c(Cc3ccc(Oc4cc(Cc5c6cc(OC)c(OC)cc6cc[n+]5C)ccc4OC)cc3)c2cc1OC"
system_under_test = "HCC 2998"
class_name = "inactive"

[[record]]
compound = "CC1(C)OC1CC/C(=C/CBr)CBr (stereo not given)"
system_under_test = "HCC 2998"
class_name = "inactive"

[[record]]
compound = "CN(C)c1nc(N(C)C)nc(N(C)CN(C)c2ccccc2)n1"
system_under_test = "HCC 2998"
class_name = "inactive"

[[record]]
compound = "CC(=O)n1c(=O)c2cc3c(=O)n(-c4cccc(C#N)c4)c(=O)c3cc2c1=O"
system_under_test = "HCC 2998"
class_name = "inactive"

[[record]]
compound = "Cc1ccnc2nc(-c3cccc(Cl)c3)cc(O)c12"
system_under_test = "HCC 2998"
class_name = "active"

[[record]]
compound = "CCOC(=O)C1CCC/C1=N\\NC(=N)N.Cc1cc(O)c(C(C)C)cc1S(=O)(=O)O (stereo not given)"
system_under_test = "HCC 2998"
class_name = "inactive"

[[record]]
compound = "O=C(NO)c1coc2ccccc2c1=O"
system_under_test = "HCC 2998"
class_name = "inactive"

[[record]]
compound = "Cc1ccccc1-c1nc2c(C(=O)NCCN(C)C)cccc2[nH]1"
system_under_test = "HCC 2998"
class_name = "inactive"

[[record]]
compound = "CO/N=C(/C(=O)Nc1c[n+](CC(=O)[O-])cs1)c1csc(N)n1"
system_under_test = "HCC 2998"
class_name = "inactive"

[[record]]
compound = "Cc1cc(O)nc(CNC(=O)c2cccc(C(=O)NCc3cc(O)nc(C)n3)c2)n1"
system_under_test = "HCC 2998"
class_name = "inactive"

[[record]]
compound = "N=c1oc2ccc3ccccc3c2cc1-c1nc(O)c2ccccc2n1"
system_under_test = "HCC 2998"
class_name = "inactive"


====

# Test system: SK-OV-3
# protocol_text: NCI tumour cell line growth inhibition, 48 h
Activity calls are given as the source filed them. Rule as the data show it: active = GI50 up to about 1.1 µM and inactive = higher.
Outcome codes: active, inactive

[[record]]
compound = "OC(CCN1CCN(CCOC(c2ccc(F)cc2)c2ccc(F)cc2)CC1)c1ccccc1 (stereo not drawn)"
class_name = "inactive"

[[record]]
compound = "Cc1cc(O)nc(NN2C(Cl)C(=O)C2c2ccc(O)cc2)n1 (stereo not drawn)"
class_name = "inactive"

[[record]]
compound = "NC(=O)Oc1ccccc1"
class_name = "inactive"

[[record]]
compound = "COc1ccc(/C=C\\c2cc(OC)c(OC)c(OC)c2)cc1OC"
class_name = "active"

[[record]]
compound = "COc1cc(C2SCC(=O)N2c2ccc(-n3c(-c4ccccc4)nc4ccccc4c3=O)cc2)ccc1O (stereo not drawn)"
class_name = "inactive"

[[record]]
compound = "O=S1(=O)NC2CCC3NS(=O)(=O)NC4CCC(N1)N4S(=O)(=O)N23 (stereo not drawn)"
class_name = "inactive"

[[record]]
compound = "COc1ccc(C2=C(OC(=O)N(C)C)c3cccn3-c3cc(C(F)(F)F)ccc3S2)cc1"
class_name = "inactive"

[[record]]
compound = "O=C(OCc1ccccc1CN1CCOCC1)c1cccc(Br)c1"
class_name = "inactive"

[[record]]
compound = "CC(=O)n1c(=O)c2cc3c(=O)n(-c4cccc(C#N)c4)c(=O)c3cc2c1=O"
class_name = "inactive"

[[record]]
compound = "CNc1ncnc2c1nc(NC1CCCC1)n2C1OC(CO)C(O)C1O (stereo not drawn)"
class_name = "inactive"

[[record]]
compound = "C=C(c1ccccc1)c1cc2c(=O)[nH]ccc2n1C"
class_name = "inactive"

[[record]]
compound = "Cc1ccc2nc(/C=N/c3ccc(Cl)cc3)cc(C)c2c1"
class_name = "inactive"

[[record]]
compound = "O=C(Nc1cccc(O)c1)C(=O)C(C(=O)c1ccc(Cl)c(Cl)c1)C1OC(=O)c2ccccc21 (stereo not drawn)"
class_name = "inactive"


====

# System: Malme-3M
# protocol_text: NCI tumour cell line growth inhibition, 48 h
Calls of active or inactive are those of the source. Cut-off read from the data, not from the text of the source: active = GI50 up to about 1.1 µM and inactive = higher.
Outcome codes: label 1 = active, label 0 = inactive

[[record]]
molecule = "CO[C@@H]1C[C@H]2N3CC[C@@]2(c2cc4c(cc2C3)OCO4)[C@H]2O[C@@H]12"
system_under_test = "Malme-3M"
class_name = "label 0"

[[record]]
molecule = "CCCCCC(=O)N[C@H]1CCc2cc(O)c(O)c(O)c2-c2ccc(SC)c(=O)cc21"
system_under_test = "Malme-3M"
class_name = "label 0"

[[record]]
molecule = "Cc1ccc(S(=O)(=O)NC(=O)C2=C3SCCN3C(=O)N(S(=O)(=O)c3ccc(C)cc3)C2c2ccccc2)cc1 (configuration not stated)"
system_under_test = "Malme-3M"
class_name = "label 0"

[[record]]
molecule = "Cc1cc(O)nc(CNC(=O)c2cccc(C(=O)NCc3cc(O)nc(C)n3)c2)n1"
system_under_test = "Malme-3M"
class_name = "label 0"

[[record]]
molecule = "OC(CCN1CCN(CCOC(c2ccc(F)cc2)c2ccc(F)cc2)CC1)c1ccccc1 (configuration not stated)"
system_under_test = "Malme-3M"
class_name = "label 0"

[[record]]
molecule = "O=CCC1CCCCC1"
system_under_test = "Malme-3M"
class_name = "label 0"

[[record]]
molecule = "CC1(OCc2ccccc2)C(=O)N2C1N(C(=O)OCc1ccccc1)CC2(C)C (configuration not stated)"
system_under_test = "Malme-3M"
class_name = "label 0"

[[record]]
molecule = "Cc1cccc(C(C)C)c1NC(=O)CCl"
system_under_test = "Malme-3M"
class_name = "label 0"

[[record]]
molecule = "CO[C@H]1O[C@@H]2OC3(C)CCC4[C@H](C)CCC([C@H]1C)[C@]42OO3 (some centres not stated)"
system_under_test = "Malme-3M"
class_name = "label 0"

[[record]]
molecule = "Cc1cc(O)c(C(C)C)cc1NC(=O)Nc1cccc2ccccc12"
system_under_test = "Malme-3M"
class_name = "label 0"

[[record]]
molecule = "COc1ccc(-c2oc(/C=N/c3ccccc3)c([N+](=O)[O-])c2-c2ccc(OC)c(OC)c2)cc1OC"
system_under_test = "Malme-3M"
class_name = "label 0"

[[record]]
molecule = "CCCC1c2c(ccc3ccccc23)Oc2ccc3ccccc3c21"
system_under_test = "Malme-3M"
class_name = "label 0"

[[record]]
molecule = "CC(=O)/C(=N\\O)C(=O)NCc1ccccc1"
system_under_test = "Malme-3M"
class_name = "label 0"

[[record]]
molecule = "O=C(Nc1cccc(O)c1)C(=O)C(C(=O)c1ccc(Cl)c(Cl)c1)C1OC(=O)c2ccccc21 (configuration not stated)"
system_under_test = "Malme-3M"
class_name = "label 0"

[[record]]
molecule = "C=CC(Br)(CBr)CCC(Br)C(C)(C)Br (configuration not stated)"
system_under_test = "Malme-3M"
class_name = "label 0"

[[record]]
molecule = "Cc1ccc(NC(=O)CC(=O)n2nc(-c3ccccc3)c(/N=N/c3ccc(Cl)cc3)c2-c2ccccc2)cc1"
system_under_test = "Malme-3M"
class_name = "label 0"

[[record]]
molecule = "OC1[C@H]([C@H]2CCCC[C@@H]2O)CCC[C@@H]1[C@@H]1CCCC[C@H]1O (some centres not stated)"
system_under_test = "Malme-3M"
class_name = "label 0"

[[record]]
molecule = "C=C1CC(CN2CCC(=O)NC2=O)(c2ccccc2)OC1=O (configuration not stated)"
system_under_test = "Malme-3M"
class_name = "label 0"

[[record]]
molecule = "COc1c(OC2OC(CO)C(O)C(O)C2O)cc2c(c1OC)-c1ccc(OC)c(=O)cc1C(NC(C)=O)CC2 (configuration not stated)"
system_under_test = "Malme-3M"
class_name = "label 0"

[[record]]
molecule = "c1ccc2c(c1)nc1n2C2CCC(C2)N1 (configuration not stated)"
system_under_test = "Malme-3M"
class_name = "label 0"

[[record]]
molecule = "CC(C)C[C@H](NC(=O)[C@@H](Cc1cccc2ccccc12)NC(=O)N1CCOCC1)B(O)O"
system_under_test = "Malme-3M"
class_name = "label 0"

[[record]]
molecule = "CN(C)CCNc1ccc([N+](=O)[O-])c2nc3ccccc3c(N)c12"
system_under_test = "Malme-3M"
class_name = "label 1"

[[record]]
molecule = "CC(=O)O[C@@]12CO[C@@H]1C[C@H](O)[C@@]1(C)C(=O)[C@H](O)C3=C(C)[C@@H](OC(=O)[C@H](O)[C@@H](NC(=O)OC(C)(C)C)c4ccccc4)C[C@@](O)([C@@H](OC(=O)c4ccccc4)[C@H]21)C3(C)C [DOCETAXEL]"
system_under_test = "Malme-3M"
class_name = "label 0"

[[record]]
molecule = "S=C(S)NCNC(=S)S"
system_under_test = "Malme-3M"
class_name = "label 0"

[[record]]
molecule = "COc1cc(Cc2ccc3c(c2C#N)N(C)c2ccccc2S3)cc(OC)c1OC"
system_under_test = "Malme-3M"
class_name = "label 0"

[[record]]
molecule = "N=c1oc2ccc3ccccc3c2cc1-c1nc(O)c2ccccc2n1"
system_under_test = "Malme-3M"
class_name = "label 0"

[[record]]
molecule = "Cn1nc2ccc3nccc(NCCNCCO)c3c2n1"
system_under_test = "Malme-3M"
class_name = "label 0"

[[record]]
molecule = "COc1cc2c3c4[n+](cc2c(OC)c1OC)CCC4CCC3 (configuration not stated)"
system_under_test = "Malme-3M"
class_name = "label 0"

[[record]]
molecule = "O=C(c1ccccc1F)c1c(NCc2ccccc2)c(=O)c1=O"
system_under_test = "Malme-3M"
class_name = "label 0"

[[record]]
molecule = "Cc1ccc(NC(=S)C#N)cc1Cl"
system_under_test = "Malme-3M"
class_name = "label 0"

[[record]]
molecule = "NNC(=S)N1CCN(C(=S)NN)CC1"
system_under_test = "Malme-3M"
class_name = "label 0"

[[record]]
molecule = "CCOc1ccccc1Nc1nc(C)c(C(=O)CC(=O)C(=O)Nc2ccccc2)s1"
system_under_test = "Malme-3M"
class_name = "label 0"

[[record]]
molecule = "CCN(CC)C(=O)N1CCN(C=S)CC1"
system_under_test = "Malme-3M"
class_name = "label 0"

[[record]]
molecule = "C=C1C(=O)O[C@@H]2[C@H]1CC[C@H](C)[C@]1(O)CCC(=O)[C@@]21C [CORONOPILIN]"
system_under_test = "Malme-3M"
class_name = "label 0"

[[record]]
molecule = "NCCc1ccc(S(=O)(=O)O)cc1[N+](=O)[O-]"
system_under_test = "Malme-3M"
class_name = "label 0"

[[record]]
molecule = "OC1=C2c3ccccc3NC2Oc2cc(F)ccc21 (configuration not stated)"
system_under_test = "Malme-3M"
class_name = "label 0"

[[record]]
molecule = "N#Cc1cccc(Nc2ccccc2SSc2ccccc2Nc2cccc(C#N)c2)c1"
system_under_test = "Malme-3M"
class_name = "label 0"

